Reference for the values: paper PMC6163455

- target: T1, SpyCatcher_β-lactamase protein ( | E. coli)
- T1 construct: N-terminal leader as printed; TEM-1 β-lactamase of Escherichia coli without its signal peptide; C-terminal tail as printed; Printed mass 42.4 kDa; also called SpyC_β-lactamase; source: E. coli BL21 (DE3) Gold, purified (IMAC, SEC)
- test: SpyTag/SpyCatcher covalent conjugation (isopeptide bond), analysed by SDS-PAGE; peptide:protein ratio 1.125:1 or 1.25:1, 50 µM SpyC_BLA; 50 mM HEPES, 200 mM NaCl, pH 7.0; 2 h at room temperature and/or overnight at 4 °C; conjugation efficiencies analysed on 4-12% NuPAGE Bis-Tris gels; conjugates then used for uptake into CHO-K1 and T47D cells
- protocol_conditions: both partners purified
measured_property: binding result

1. LFVDKATPQIYYTPSESVTVKSKGKNRRKKSGASAHIVMVDAYKPTKG (phylomer CPP 1788, discovered from phylomer peptide libraries; source: synthetic peptide (Pepscan or Mimotopes)) [1788_SpyT]; binds
2. PSSTPATNVARPRLNPIRGHKFALAVPNSRTRGASAHIVMVDAYKPTKG (phylomer CPP 0167, discovered from phylomer peptide libraries; source: synthetic peptide (Pepscan or Mimotopes)) [0167_SpyT]; binds
3. RKQKSLQTKLAENPPVPRKKRQSRPRWKQWLQKGASAHIVMVDAYKPTKG (phylomer CPP 0084, discovered from phylomer peptide libraries; source: synthetic peptide (Pepscan or Mimotopes)) [0084_SpyT]; binds
4. GRKKRRQRRRGASAHIVMVDAYKPTKG (canonical CPP TAT; source: synthetic peptide (Pepscan or Mimotopes)) [TAT_SpyT]; binds
5. 1869_SpyT (phylomer CPP 1869, discovered from phylomer peptide libraries; source: synthetic peptide (Pepscan or Mimotopes)) peptide: PPHPRPLPAPAQSRKKQKGRAGRGHEKTGASVLRGPQKPHPLPAQLRGASAHIVMVDAYKPTKG; binds
6. 0169_SpyT (phylomer CPP 0169, discovered from phylomer peptide libraries; source: synthetic peptide (Pepscan or Mimotopes)) peptide: PLTQRTLQRGKKPKQRQNWKKARTSSAKTAPKTVVSRTTSQRKGASAHIVMVDAYKPTKG; binds
7. 1746_SpyT (source: synthetic peptide (Pepscan or Mimotopes)) peptide: PLKPKKPKTQEKKKKQPPKPKKPKTQEKKKKQPPKPKRGASAHIVMVDAYKPTKG; binds
8. KKKKQPPKPKKPKTQEKKKKQPPKPKRGASAHIVMVDAYKPTKG (phylomer CPP 1746c27, discovered from phylomer peptide libraries; source: synthetic peptide (Pepscan or Mimotopes)) [1746c27_SpyT]; binds
